Reference for the values: patent US20140314711A1

# Experimental Target: T1, human IL-22 receptor complex IL22R1 and IL10R2 (human) (UniProt Q8N6P7)
# T1 sequence (looked up) 1: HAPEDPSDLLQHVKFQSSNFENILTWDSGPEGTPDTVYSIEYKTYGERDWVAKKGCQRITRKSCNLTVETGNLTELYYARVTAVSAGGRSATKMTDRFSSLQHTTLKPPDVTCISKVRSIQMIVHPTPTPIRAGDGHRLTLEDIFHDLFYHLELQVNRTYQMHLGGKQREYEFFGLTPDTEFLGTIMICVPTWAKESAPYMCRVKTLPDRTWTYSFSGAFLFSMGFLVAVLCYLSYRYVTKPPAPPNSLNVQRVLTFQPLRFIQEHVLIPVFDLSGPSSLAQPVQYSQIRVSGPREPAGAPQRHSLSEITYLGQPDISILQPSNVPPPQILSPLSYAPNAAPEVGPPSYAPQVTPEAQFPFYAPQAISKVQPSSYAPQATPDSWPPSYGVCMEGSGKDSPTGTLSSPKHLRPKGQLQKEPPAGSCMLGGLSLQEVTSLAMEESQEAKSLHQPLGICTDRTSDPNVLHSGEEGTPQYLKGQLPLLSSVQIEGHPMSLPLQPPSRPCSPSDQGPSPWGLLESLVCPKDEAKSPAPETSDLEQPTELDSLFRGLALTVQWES
# T1 sequence (looked up) 2: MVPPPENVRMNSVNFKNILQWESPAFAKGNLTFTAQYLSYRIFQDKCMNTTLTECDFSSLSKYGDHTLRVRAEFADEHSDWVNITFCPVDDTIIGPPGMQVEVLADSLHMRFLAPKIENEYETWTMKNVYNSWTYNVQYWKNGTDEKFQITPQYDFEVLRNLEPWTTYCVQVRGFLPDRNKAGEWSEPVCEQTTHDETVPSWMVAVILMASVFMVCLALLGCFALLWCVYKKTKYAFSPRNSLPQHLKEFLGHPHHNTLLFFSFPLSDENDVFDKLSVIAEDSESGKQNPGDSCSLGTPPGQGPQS
# Assay Name: cell-based or functional assay
Recorded EC50 (STAT3 luciferase reporter assay), one value per entry.
Report the figure in nM without appending any unit label.

Examples with their reported EC50 (STAT3 luciferase reporter assay) follow.
Binder	EC50 (STAT3 luciferase reporter assay) / nM
IL-22 Fc construct 13 (huIgG1, linker …) (Fc fusion, not shown: a dimerising Fc or GST) APISSHCRLDKSNFQQPYITNRTFMLAKEASLADNNTDVRLIGEKLFHGVSMSERCYLMKQVLNFTLEEVLFPQSDRFQPYMQEVVPFLARLSNRLSTCHIEGDDLHIQRNVQKLKDTVKKLGESGEIKAIGELDLLFMSLRNACIKVDKKVEPKSSDKTHTCPPCP	0.025
IL-22 Fc construct 12 (huIgG1, linker …) (Fc fusion, not shown: a dimerising Fc or GST) APISSHCRLDKSNFQQPYITNRTFMLAKEASLADNNTDVRLIGEKLFHGVSMSERCYLMKQVLNFTLEEVLFPQSDRFQPYMQEVVPFLARLSNRLSTCHIEGDDLHIQRNVQKLKDTVKKLGESGEIKAIGELDLLFMSLRNACIDKKVEPKSSDKTHTCPPCP	0.025
IL-22 Fc construct 24 (huIgG1, linker …, produced in E. coli) (Fc fusion, not shown: a dimerising Fc or GST) APISSHCRLDKSNFQQPYITNRTFMLAKEASLADNNTDVRLIGEKLFHGVSMSERCYLMKQVLNFTLEEVLFPQSDRFQPYMQEVVPFLARLSNRLSTCHIEGDDLHIQRNVQKLKDTVKKLGESGEIKAIGELDLLFMSLRNACIEPKSSDKTHTCPPCP	0.016

Look up EC50 (STAT3 luciferase reporter assay): IL-22 Fc construct 18 (huIgG1, linker …, N297G) (Fc fusion, not shown: a dimerising Fc or GST) APISSHCRLDKSNFQQPYITNRTFMLAKEASLADNNTDVRLIGEKLFHGVSMSERCYLMKQVLNFTLEEVLFPQSDRFQPYMQEVVPFLARLSNRLSTCHIEGDDLHIQRNVQKLKDTVKKLGESGEIKAIGELDLLFMSLRNACIKKVEPKSSDKTHTCPPCP 0.02
